# Tested on: NCI-H23 lung
# ASSAY_METHOD_TEXT: NCI tumour cell line growth inhibition, 48 h
ENDPOINT: TGI

SMILES_STRING | EXPERIMENTAL_SYSTEM | VALUE_OBSERVED
CSC(=NCCc1c[nH]c2ccccc12)NC#N | NCI-H23 lung | > 100 µM
Cn1c2ccccc2c(=O)c2c(O)cc3c(c21)C=CC1(CCCCC1)O3 | NCI-H23 lung | > 10 µM
Cc1c(C(=O)O)oc2ccc([N+](=O)[O-])cc12 | NCI-H23 lung | > 100 µM
COc1cc2c(cc1OC)-c1cc3ccccc3c(=O)n1CC2 | NCI-H23 lung | > 100 µM

Sourced from PubChem BioAssay (NCI)
